# Assay overview: FP purification and fluorescence characterization in vitro (spectra, extinction coefficient, quantum yield)
# Assay type: physicochemical
# Test context: evolved APCα FPs, Table 4
Property name: Extinction Coefficient

[[record]]
molecule = "R3-2 + PCB: evolved APCα FP, SEQ ID NO: 4, with PCB (protein, phycocyanobilin chromophore; smRUFP Variant Polypeptide) MKTGEQRVKIATLLSENEKKIVDKASQDLWRRRPDFIAPGGIAFGQRERALCLRDYGWYLRLITFCLLAGDKDPIESIGLIGIREMYNSLGVPVPGMMESIRCLKEASLSLLDEEDAKETAPYFDYIIQAMS"
result = "74,000 M^−1 cm^−1"

[[record]]
molecule = "R4-1: evolved APCα FP, SEQ ID NO: 5, with BV (protein, biliverdin chromophore; smRUFP Variant Polypeptide) MKTGEQRVKIATLLSENEKKIVDKASQDLWRRRPDFIAPGGIAFSQRERALCLRDYRWYLHLITFCLLAGDKDPIESIGLIGIREMYNSLGVPVPGMMESIRCLKEASLSLLDEEDAKETAPYFDYIIKAMS"
result = "93,000 M^−1 cm^−1"

[[record]]
molecule = "R8-9: evolved APCα FP, SEQ ID NO: 10, with BV (protein, biliverdin chromophore; smRUFP Variant Polypeptide) MKTCEQRVNIATLLSENKKKIVDKASQDLWRRRPDLIAPGGIAFSQRDRALCLRDYGWYLHLITFCLLAGDKGPIESIGLIGIREMYNSLGVPVPDMMESIRCLKEASLSLLDEEDAKETAPYFDYIIKAMS"
result = "175,000 M^−1 cm^−1"

